B1: Azoarcus group I ribozyme (parent)
chain: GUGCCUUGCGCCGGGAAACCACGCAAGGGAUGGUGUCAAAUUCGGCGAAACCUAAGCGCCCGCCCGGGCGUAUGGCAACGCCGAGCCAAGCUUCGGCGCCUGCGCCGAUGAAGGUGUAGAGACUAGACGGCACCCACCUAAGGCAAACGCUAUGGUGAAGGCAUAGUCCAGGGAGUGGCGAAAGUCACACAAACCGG

variants of: B1; test: reverse-splicing fitness (ratio to wild type); higher = more active; in vitro selection; Mg2+ level not given
Quick rule for you: reverse-splicing fitness at 0.02 or higher means Yes, lower means No.

1. A120U C169A U176A
No
2. C82G A111U A145C C150G C169U
No
3. C82A A111C C150G C169U U176G
No
4. C82U A111G A120G A145G C169A U176G
No
5. A111C A120G U176C
Yes
6. A111G A120U A145G C150A
Yes
7. A111U A120G A145C C150A C169A U176G
No
8. A111C A145G C150U C169U U176A
Yes
9. C82U A111C A120G C150A C169G U176G
No
10. C82A A111C A120C C150U C169G U176A
No
11. C82U A111U A120C A145G C169G U176G
No
12. A111C A120U A145C C150G
Yes
13. C82G A111G A120C A145G C150U C169U
No
14. C82G A120C A145C C169U U176G
No
15. C82U A111C A120C C150A
No
16. A111U A120U A145G C150U C169U U176C
No
17. C82G A111G C150G C169G
No
18. C82A A111C A145C C150U C169G U176A
Yes
19. C82U A111G A120G C150G C169U U176G
No
20. C82G A111U A120C A145G C150G C169A
No
21. C82G A111U A120C C169A U176C
Yes
22. C82G A120U A145G C150U C169G U176G
No
23. C82U A145G C169A U176A
No
24. A111G C150U C169A U176A
No
25. C82A A111G A120U A145U C169G U176A
No
26. C82U A111G A120C A145G C150U C169U U176A
No
27. C82G A111C A120G A145U C169A U176C
No
28. A111G A120U A145G C150G C169G U176C
No
29. C82U A111C A120C A145U C150A C169G U176C
No
30. A120C C150A C169U U176C
Yes
31. C82A C150G C169A
No
32. C82U A111C A120G A145G C150A C169A U176G
No
33. C82G A111G A120G A145G C150A C169U U176A
No
34. C82A A111U A120C C150A C169U U176A
No
35. C82A A111G A120U A145G C150A C169G
No
36. C82U A120G A145U C150U C169U U176A
Yes
37. C82A A111C A145U C150G C169A
No
